Ref: patent US8741896B2

Heads up, these compounds all have pIC50 values measured for UniProt P48736.
Sequence (P48736 whole entry, species assumed): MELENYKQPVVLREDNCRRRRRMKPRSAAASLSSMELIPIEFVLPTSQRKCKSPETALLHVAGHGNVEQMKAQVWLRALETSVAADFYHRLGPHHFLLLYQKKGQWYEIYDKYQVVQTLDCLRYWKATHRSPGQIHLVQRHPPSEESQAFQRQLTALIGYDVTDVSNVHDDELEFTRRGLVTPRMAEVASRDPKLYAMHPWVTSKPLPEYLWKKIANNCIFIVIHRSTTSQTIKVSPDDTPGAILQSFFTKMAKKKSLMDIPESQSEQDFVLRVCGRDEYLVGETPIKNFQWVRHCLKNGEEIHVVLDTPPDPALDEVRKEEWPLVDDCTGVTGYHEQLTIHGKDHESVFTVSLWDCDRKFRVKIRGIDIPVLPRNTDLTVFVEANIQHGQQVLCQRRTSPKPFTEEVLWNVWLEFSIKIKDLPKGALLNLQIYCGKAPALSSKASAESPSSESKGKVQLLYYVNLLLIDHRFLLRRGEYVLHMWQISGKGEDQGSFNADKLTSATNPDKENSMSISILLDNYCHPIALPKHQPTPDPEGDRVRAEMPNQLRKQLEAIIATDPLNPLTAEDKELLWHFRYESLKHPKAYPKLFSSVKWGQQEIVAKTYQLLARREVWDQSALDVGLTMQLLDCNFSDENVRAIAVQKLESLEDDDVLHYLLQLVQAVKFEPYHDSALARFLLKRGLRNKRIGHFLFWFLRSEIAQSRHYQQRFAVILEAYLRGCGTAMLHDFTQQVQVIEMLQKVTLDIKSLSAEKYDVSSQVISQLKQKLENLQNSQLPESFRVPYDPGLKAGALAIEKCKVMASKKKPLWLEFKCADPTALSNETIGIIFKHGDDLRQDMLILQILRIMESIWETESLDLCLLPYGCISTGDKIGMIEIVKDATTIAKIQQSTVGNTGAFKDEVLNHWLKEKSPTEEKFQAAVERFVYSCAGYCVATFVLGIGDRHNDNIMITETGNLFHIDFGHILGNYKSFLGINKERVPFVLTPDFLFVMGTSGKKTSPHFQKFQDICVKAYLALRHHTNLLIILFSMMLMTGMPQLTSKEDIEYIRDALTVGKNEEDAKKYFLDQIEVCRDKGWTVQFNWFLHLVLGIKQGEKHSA
pIC50: −log10 of the molar value.

The examples below pair each entry with its known result.
Nc1ncc(-c2nc(N3CCOCC3)nc3c2cnn3CC(=O)N2CCOCC2)cn1 : 5.00 to 7.00
Cn1ncc2c(-c3cnc(N)nc3)nc(N3CCOCC3)nc21 : 5.00 to 7.00

For the next question, use this compound.
Prompt: # input compound: Cn1ncc2c(-c3cccc(O)c3)nc(N3CCOCC3)nc21 ; wanted: its pIC50
Response: 5.00 to 7.00
